Numbers sourced from patent USRE42013E1.

# target-under-test: human growth hormone secretagogue receptor (hGHS-R1a) (Homo sapiens, UniProt Q92847)
# Construct: purchased PerkinElmer BioSignal #RBHGHSM, lot#1887; host or cells: HEK-293, stably transfected
# Sequence (Q92847 whole entry): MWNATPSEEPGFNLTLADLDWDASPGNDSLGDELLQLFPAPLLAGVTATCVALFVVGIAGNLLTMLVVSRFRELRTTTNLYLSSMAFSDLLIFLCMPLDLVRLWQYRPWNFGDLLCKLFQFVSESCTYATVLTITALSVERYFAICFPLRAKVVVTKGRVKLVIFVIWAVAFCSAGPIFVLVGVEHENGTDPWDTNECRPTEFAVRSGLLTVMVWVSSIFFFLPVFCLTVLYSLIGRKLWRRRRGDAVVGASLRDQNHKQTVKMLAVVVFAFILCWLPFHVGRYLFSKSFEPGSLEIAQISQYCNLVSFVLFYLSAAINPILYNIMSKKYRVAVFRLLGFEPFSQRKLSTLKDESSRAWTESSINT
# assay: Competitive radioligand binding assay (ghrelin receptor), [125I]-ghrelin displacement
# test-parameters: [125I]-ghrelin displacement, hGHS-R1a HEK-293 membranes; read-out: Binding Activity at the Human Ghrelin Receptor (Ki)
Please respond with reported Ki for every item in the list.

Recorded Ki, per entry:
[[record]]
compound = "CCC(C)C1NCCc2ccccc2CCCNC(=O)C(Cc2ccccc2)NC(=O)C(C)N(C)C1=O (stereo not drawn)"
target_under_test = "human growth hormone secretagogue receptor (hGHS-R1a) (Homo sapiens, UniProt Q92847)"
recorded_measurement = "100 to 10000 nM"

[[record]]
compound = "CCC(C)C1NCCCc2ccccc2CCCNC(=O)C(Cc2ccccc2)NC(=O)C(C)N(C)C1=O (stereo not drawn)"
target_under_test = "human growth hormone secretagogue receptor (hGHS-R1a) (Homo sapiens, UniProt Q92847)"
recorded_measurement = "10 to 100 nM"

[[record]]
compound = "CCCC1C(=O)N(C)C(C)C(=O)NC(Cc2ccccc2)C(=O)NCCCc2ccccc2OCCN1C(C)=O (stereo not drawn)"
target_under_test = "human growth hormone secretagogue receptor (hGHS-R1a) (Homo sapiens, UniProt Q92847)"
recorded_measurement = "> 10000 nM"

[[record]]
compound = "CCC(C)C1NCc2ccccc2CC=CCCNC(=O)C(Cc2ccccc2)NC(=O)C(C)N(C)C1=O (stereo not drawn)"
target_under_test = "human growth hormone secretagogue receptor (hGHS-R1a) (Homo sapiens, UniProt Q92847)"
recorded_measurement = "10 to 100 nM"

[[record]]
compound = "CCCC1C(=O)N(C)C(C)C(=O)NC(Cc2ccccc2)C(=O)NCCCc2ccccc2OCCN1C (stereo not drawn)"
target_under_test = "human growth hormone secretagogue receptor (hGHS-R1a) (Homo sapiens, UniProt Q92847)"
recorded_measurement = "100 to 10000 nM"


Please state Ki for every compound in the list that follows.
1. CCC(C)C1NCCOc2ccc(C(=O)O)cc2CCCNC(=O)C(Cc2ccccc2)NC(=O)C(C)N(C)C1=O (stereo not drawn)
2. O=C1NC2(CCCC2)C(=O)NC(Cc2ccccc2)C(=O)NCC=Cc2ccccc2OCCNC1Cc1c[nH]cn1 (stereo not drawn)
3. O=C1NC2(CCCC2)C(=O)NC(Cc2ccccc2)C(=O)NCC=Cc2ccccc2OCCNC1Cc1ccccn1 (stereo not drawn)
4. CCC(C)C1NCCOc2ccc(C(=N)N)cc2CCCNC(=O)C(Cc2ccccc2)NC(=O)C(C)N(C)C1=O (stereo not drawn)
5. CCC(C)C1NCCCc2c(c(=O)n(C)c(=O)n2C)CCCNC(=O)C(Cc2ccccc2)NC(=O)C(C)N(C)C1=O (stereo not drawn)
6. CCC(C)C1NCCCc2ccccc2CCCCNC(=O)C(Cc2ccccc2)NC(=O)C(C)N(C)C1=O (stereo not drawn)
7. CC(C)C1NCCOc2ccccc2C=CCNC(=O)C(Cc2ccccc2)NC(=O)C2(CCCC2)NC1=O (stereo not drawn)
8. CCC(C)C1NCCCc2ccccc2C=CCCNC(=O)C(Cc2ccccc2)NC(=O)C(C)N(C)C1=O (stereo not drawn)

1: 100 to 10000 nM; 2: 100 to 10000 nM; 3: > 1000 nM; 4: > 10000 nM; 5: > 10000 nM; 6: 10 to 100 nM; 7: 10 to 100 nM; 8: 100 to 10000 nM

Please state Ki for every compound in the list that follows.
1. CCC(C)C1NCc2ccccc2CC=CCNC(=O)C(Cc2ccccc2)NC(=O)C(C)N(C)C1=O (stereo not drawn)
2. CC(=O)N1CCOc2ccccc2C=CCNC(=O)C(Cc2ccccc2)NC(=O)C2(CCCC2)NC(=O)C1CC(C)C (stereo not drawn)

100 to 10000 nM
> 10000 nM
